test.system: Delta-type opioid receptor (Rattus norvegicus)
Sequence (P33533 whole entry): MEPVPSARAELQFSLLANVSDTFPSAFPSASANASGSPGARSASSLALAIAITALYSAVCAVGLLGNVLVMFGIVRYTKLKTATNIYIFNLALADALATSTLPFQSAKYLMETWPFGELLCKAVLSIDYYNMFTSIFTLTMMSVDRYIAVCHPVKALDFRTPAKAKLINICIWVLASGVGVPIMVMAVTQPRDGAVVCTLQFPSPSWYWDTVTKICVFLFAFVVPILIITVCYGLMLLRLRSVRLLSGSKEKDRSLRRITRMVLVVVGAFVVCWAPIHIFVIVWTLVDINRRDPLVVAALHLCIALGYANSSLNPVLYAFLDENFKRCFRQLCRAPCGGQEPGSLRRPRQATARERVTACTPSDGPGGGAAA
test.protocol: Inhibition of Wistar rat brain membrane DOP
Assign pIC50 to each entry below.
Give bare numbers, as −log10 of the molar value.

Cc1ccccc1[C@@H]1NC(=O)[C@H](c2ccccc2)NC(=O)[C@H](NC(=O)[C@@H](N)Cc2c(C)cc(O)cc2C)CCCCNC(=O)C[C@@H](C(N)=O)NC1=O: 8.69
Cc1ccc([C@@H]2NC(=O)[C@H](NC(=O)[C@@H](N)Cc3c(C)cc(O)cc3C)CCCCNC(=O)C[C@@H](C(N)=O)NC(=O)[C@H](c3ccccc3)NC2=O)cc1: 6.81
Cc1ccc([C@@H]2NC(=O)[C@H](c3ccccc3)NC(=O)[C@H](NC(=O)[C@@H](N)Cc3c(C)cc(O)cc3C)CCCCNC(=O)C[C@@H](C(N)=O)NC2=O)cc1: 7.83

Field: next compound
Record request: pIC50 value, item Cc1ccccc1[C@@H]1NC(=O)[C@H](NC(=O)[C@@H](N)Cc2c(C)cc(O)cc2C)CCCCNC(=O)C[C@@H](C(N)=O)NC(=O)[C@H](c2ccccc2)NC1=O
6.70
